Some compounds, each annotated with its measured pest or weed control at 200 ppm.
System: Puccinia recondita f. sp. tritici
testMethodNotes: Test I: wheat leaf rust on wheat seedlings, sprayed the day before inoculation, visual disease rating
Assay type: in vivo
details: Puccinia recondita, 168 h; 200 ppm; 100 = 100% disease control, 0 = no control relative to controls
Express the result in % but write the number alone.

Some entries whose results are on file:
* C=Cc1nc(Cl)c(-c2c(F)ccc(OC)c2F)n1-c1cccc(OC(F)F)c1 [Compound 583] | 85
* Cc1nc(Cl)c(-c2ccc(F)cc2)n1-c1ccc(Cl)cc1 [Compound 5] | 88
* N#Cc1ccc(F)c(-c2c(Cl)ncn2-c2ccc(Cl)cc2)c1F [Compound 386] | 98
* Cc1ncc(-c2ccc(F)cc2)n1-c1ccc(Cl)cc1 [Compound 4] | 79

From here, focus on the item given below.
What value of pest or weed control at 200 ppm on Puccinia recondita f. sp. tritici does COc1cc(F)c(-c2c(Cl)nc(CF)n2-c2ccc(F)cc2)c(F)c1 [Compound 331] have?
100

###

Test system: Septoria tritici
testMethodNotes: Test G: wheat leaf blotch on wheat seedlings, sprayed the day before inoculation, visual disease rating
Type: in vivo
details: 200 ppm; 100 = 100% disease control, 0 = no control relative to controls
Quick reference: Test G disease control rating of the listed items.
Give your result in % as a bare value.

* Cc1ncn(-c2ccc(Cl)c(F)c2)c1-c1sc(Cl)nc1Cl | 3
* Fc1ccc(-n2c(Br)nc(Cl)c2-c2ccc(Cl)cc2)c(Cl)c1 | 94
* COc1cc(F)c(-c2c(Cl)nc(Cl)n2Cc2ccc(Cl)nc2)c(F)c1 | 99
* Clc1ccc(-c2c(Cl)nc(Cl)n2Cc2cccc(Cl)c2)cc1 | 93

# input for lookup
Form field: reported Test G disease control rating of COc1cc(F)c(-n2nnc(Br)c2-c2ccc(Cl)cc2)c(F)c1
90

###

Entries and their measured Test G disease control rating follow.
System: Septoria tritici
testMethodNotes: Test G: wheat leaf blotch on wheat seedlings, sprayed the day before inoculation, visual disease rating
Format: in vivo
details: 200 ppm; 100 = 100% disease control, 0 = no control relative to controls
Supply the numeric figure in %, leaving out any unit text.

- Fc1cccc(C(F)(F)F)c1-c1c(Cl)nc(Br)n1-c1ccc(Cl)cc1 [compound 86]: 93

Please look up its Test G disease control rating: COc1cc(F)c(-c2c(Cl)nc(Cl)n2-c2ccc(NC(C)=O)nc2)c(F)c1 [compound 673]
99

Which Test G disease control rating value is on record for COc1ccc(F)c(-c2c(Cl)nc(C)n2-c2ccc(Cl)c(F)c2)c1F [compound 393] ?
95

May I ask what Test G disease control rating has been recorded for COc1ccc(F)c(-c2c(Cl)nc(Br)n2-c2ccc(Cl)cc2)c1F [compound 117] ?
97

So what does the record say about Test G disease control rating for Cc1ncn(-c2ccc(Cl)c(F)c2)c1-c1cccnc1Cl [compound 348] ?
8

I'd like to know its Test G disease control rating. The compound in question is COc1ccc(Cl)c(-c2c(Cl)nc(C)n2-c2ccc(Cl)cc2)c1F [compound 550]
97

Field request: Test G disease control rating | item: Cc1ccc(-n2c(Cl)nc(Cl)c2-c2c(F)cccc2F)nc1 [compound 577]
100

Reported Test G disease control rating for Cc1nc(Cl)c(-c2c(F)cccc2F)n1-c1ccc(OC(F)(F)F)cc1 [compound 81] : what is it?
93

Give the measured Test G disease control rating of COc1ccc(F)c(-c2c(Br)ncn2-c2ccc(Cl)cc2)c1F [compound 449] .
97
